Ref: ChEMBL document CHEMBL1127620

Species on record: Mus musculus
Test: Compound was tested for oral efficacy on systemic infections caused by Staphylococcus aureus IID803 in mice
Format: functional
Parameter: ED50

Exercise: # lookup: ED50 of CC1COc2c(N3CCN(C)CC3)c(F)cc3c(=O)c(C(=O)O)cn1c23 (stereo not drawn)
Solution: 11 mg/kg

Exercise: Subsequent entry: CCNCC1CCN(c2c(F)cc3c(=O)c(C(=O)O)c4scc5n4c3c2N(C)C5)C1.Cl (stereo not drawn)
Solution: > 12 mg/kg

Exercise: Subsequent entry: "CN1Cc2csc3c(C(=O)O)c(=O)c4cc(F)c(N5CCSCC5)c1c4n23"
Solution: > 12 mg/kg

Exercise: Subsequent entry: "CCN1CCN(c2c(F)cc3c(=O)c(C(=O)O)c4scc5n4c3c2N(C)C5)CC1"
Solution: 3 mg/kg

Exercise: Subsequent entry: "CN1Cc2csc3c(C(=O)O)c(=O)c4cc(F)c(N5CCOCC5)c1c4n23"
Solution: > 12 mg/kg

Exercise: Subsequent entry: CN1Cc2csc3c(C(=O)O)c(=O)c4cc(F)c(N5CCC(O)C5)c1c4n23 (stereo not drawn)
Solution: > 12 mg/kg

Exercise: Subsequent entry: CNCC1CCN(c2c(F)cc3c(=O)c(C(=O)O)c4scc5n4c3c2N(C)C5)C1 (stereo not drawn)
Solution: > 12 mg/kg

Exercise: Subsequent entry: "CN1CCN(c2c(F)cc3c(=O)c(C(=O)O)c4scc5n4c3c2N(C)C5)CC1"
Solution: 3 mg/kg
